The reported measurements were obtained from patent US11564928B1.

Biological target: human CB2 receptor (Homo sapiens (Human))
Assay: CB2 receptor cAMP assay (DiscoverX HitHunter cAMP XS+)
Assay type: cell-based
experimental.readout: pIC50
Give bare numbers, as −log10 of the molar value.

# example entries with known answers
molecule	target.under.test	pIC50
CC(C)c1cnc2c(c1)cc(C(=O)N[C@H](C)c1ccc(F)cc1)c(=O)n2Cc1ccc(F)cc1	human CB2 receptor (Homo sapiens (Human))	8.15
CC(C)c1cnc2c(c1)cc(C(=O)N[C@H](C)c1ccc(F)cc1)c(=O)n2Cc1ccc(F)cn1	human CB2 receptor (Homo sapiens (Human))	8.70
N#Cc1ccc(C2(NC(=O)c3cc4cc(Br)cnc4n(Cc4ccc(F)cc4)c3=O)CC2)cc1	human CB2 receptor (Homo sapiens (Human))	8.44
O=C(NC12CC(C1)C2)c1c(O)c2cc(-c3ccc(F)cc3)cnc2n(CCN2CCOCC2)c1=O	human CB2 receptor (Homo sapiens (Human))	7.40
N#Cc1ccc(-c2cnc3c(c2)cc(C(=O)NC2CC4(CCC4)C2)c(=O)n3Cc2ccc(F)cc2)nc1	human CB2 receptor (Homo sapiens (Human))	7.68

For each of the molecules below, state pIC50.
1. O=C(NC12CC(C1)C2)c1cc2cc(Br)cnc2n(Cc2ccc(F)cc2)c1=O
2. O=C(NC1CC2(CCC2)C1)c1cc2cc(-c3ccc4c(c3)OCCO4)cnc2n(CCN2CCOCC2)c1=O
3. C[C@@H](NC(=O)c1cc2cc(C3CC3)cnc2n(Cc2ccc(F)cc2)c1=O)c1ccc(C#N)cc1

Result string:
9.00
8.22
8.70

---

Molecular target: human CB2 receptor (Homo sapiens (Human))
Experiment: CB2 receptor binding assay ([3H]CP-55,940 displacement, HEK-293 membranes)
pIC50: −log10 of the molar value.
Consider the following compounds; for each one, report its pIC50.

Check out these entries, answers already filled in.
compound	pIC50
CC(NC(=O)c1cc2cc(-c3ccc(F)cc3)cnc2n(Cc2ncccn2)c1=O)c1ccc(F)cc1 (stereo not shown) [Compound 65]	6.00 to 7.00
CC(C)(CO)NC(=O)c1c(O)c2cccnc2n(Cc2ccc(F)cc2)c1=O [Compound 140]	6.00 to 7.00
O=C(NC1CC2(CCC2)C1)c1cc2cc(-c3ccc(OC(F)F)cn3)cnc2n(Cc2ccc(F)cc2)c1=O [Compound 43]	6.00 to 7.00
O=C(NC1(CO)CCCCC1)c1c(O)c2cccnc2n(CCN2CCOCC2)c1=O [Compound 138]	6.00 to 7.00

Give pIC50 for each listed item.
1. CC(C)c1cnc2c(c1)cc(C(=O)N[C@H](C)c1ccc(C#N)cc1)c(=O)n2Cc1ccc(F)cn1 [Compound 108]
2. CC1CCC(NC(=O)c2c(O)c3cc(-c4ccc(C5CC5)cc4)cnc3n(CCN3CCOCC3)c2=O)CC1 (stereo not shown) [Compound 17]
3. CC(NC(=O)c1c(O)c2cc(Br)cnc2n(Cc2ccc(F)cc2)c1=O)c1ccc(F)cc1 (stereo not shown) [Compound 1]
4. Cc1c(C(=O)NC2CC3(CCC3)C2)c(=O)n(Cc2cccc(C#N)c2)c2ncc(Br)cc12 [Compound 78]

Result string:
1: 6.00 to 7.00; 2: 6.00 to 7.00; 3: 6.00 to 7.00; 4: 6.00 to 7.00

I have 6 compounds here; please give me pIC50 for each one.
1. N#Cc1ccc(-c2cnc3c(c2)c(O)c(C(=O)NC2CC4(CCC4)C2)c(=O)n3CCN2CCOCC2)nc1 [Compound 22]
2. CC(NC(=O)c1c(O)c2cc(-c3ccc(C#N)cn3)cnc2n(CCN2CCOCC2)c1=O)c1ccc(F)cc1 (stereo not shown) [Compound 21]
3. O=C(NC1CC2(CCC2)C1)c1c(O)c2cccnc2n(Cc2ccc(F)cc2)c1=O [Compound 134]
4. CC12CC(NC(=O)c3c(O)c4cccnc4n(Cc4ccc(F)cc4)c3=O)(C1)C2 [Compound 141]
5. O=C(NC12CC(C1)C2)c1c(O)c2cc(C3=CCCC3)cnc2n(CCN2CCOCC2)c1=O [Compound 125]
6. CC(NC(=O)c1c(O)c2cc(Br)cnc2n(Cc2ccc(F)cc2)c1=O)c1ccc(C#N)cc1 (stereo not shown) [Compound 3]

Result string:
6.00 to 7.00
6.00 to 7.00
6.00 to 7.00
6.00 to 7.00
6.00 to 7.00
6.00 to 7.00

The following compounds each have a reported value; give each one's pIC50.
1. COc1ccc(-c2cnc3c(c2)c(O)c(C(=O)NC2CCCCC2)c(=O)n3CCN2CCOCC2)cc1 [Compound 152]
2. O=C(NC12CC(C1)C2)c1c(O)c2cc(-c3ccc(F)cc3)cnc2n(CCN2CCC(F)CC2)c1=O [Compound 133]

Result string:
["6.00 to 7.00", "6.00 to 7.00"]

---

Molecular target: human CB2 receptor (Homo sapiens (Human), UniProt P34972)
Sequence (P34972 whole entry): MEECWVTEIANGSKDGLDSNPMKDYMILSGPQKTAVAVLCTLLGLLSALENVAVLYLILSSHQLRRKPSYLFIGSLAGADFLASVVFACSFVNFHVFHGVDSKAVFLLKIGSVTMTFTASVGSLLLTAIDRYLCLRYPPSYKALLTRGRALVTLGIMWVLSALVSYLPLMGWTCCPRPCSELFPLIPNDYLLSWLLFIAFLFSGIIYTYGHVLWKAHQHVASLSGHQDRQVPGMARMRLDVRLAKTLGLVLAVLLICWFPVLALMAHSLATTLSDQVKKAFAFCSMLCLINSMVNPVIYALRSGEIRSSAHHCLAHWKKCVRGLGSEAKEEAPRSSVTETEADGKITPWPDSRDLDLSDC
Experiment: CB2 receptor binding assay ([3H]CP-55,940 displacement, HEK-293 membranes)
Conditions: membranes of HEK-293 cells with human recombinant CB2R, [3H]CP-55,940; class symbols; read-out: CB2 IC50
Protocol: The compounds were evaluated in CB1R and CB2R binding assays using membranes from HEK-293 cells transfected with cDNAs encoding the human recombinant CB1R (Bmax=[…] protein) and human recombinant CB2R (Bmax=[…] protein) (Perkin-Elmer). […] Data are analyzed and IC50 is calculated using GraphPad Prism 5 and the model “log(inhibitor) vs. response—Variable slope”. The binding affinity of the compounds is Determined by Using the Cheng and Prusoff Equation Ki=IC50/(1+[radioligand]/Kd).
For each entry below, report its IC50 value.

Below, 3 compounds whose answers are already recorded.
compound	target.under.test	recorded.measurement
O=C(NC12CC(C1)C2)c1c(O)c2cc(C3CCCC3)cnc2n(CCN2CCOCC2)c1=O [Compound 126]	human CB2 receptor (Homo sapiens (Human), UniProt P34972)	> 1000 nM
CC(NC(=O)c1c(O)c2cc(-c3ccc(C#N)cn3)cnc2n(Cc2ccc(F)cc2)c1=O)c1ccc(C#N)cc1 (stereo not shown) [Compound 24]	human CB2 receptor (Homo sapiens (Human), UniProt P34972)	> 1000 nM
N#Cc1ccc(C2(NC(=O)c3cc4cc(Br)cnc4n(Cc4ccc(F)cc4)c3=O)CC2)cc1 [Compound 92]	human CB2 receptor (Homo sapiens (Human), UniProt P34972)	< 100 nM

From here, focus on the item given below.
Record O=C(NC12CC(C1)C2)c1c(O)c2cc(-c3ccc(F)cc3)cnc2n(Cc2cccnc2)c1=O [Compound 130] . Reported IC50: > 1000 nM

---

Molecular target: human CB2 receptor (Homo sapiens (Human), UniProt P34972)
Test: CB2 receptor binding assay ([3H]CP-55,940 displacement, HEK-293 membranes)
Details: membranes of HEK-293 cells with human recombinant CB2R, [3H]CP-55,940; read-out: CB2 IC50
Just a reminder that ties go to label 0: only IC50 strictly below 4 nM counts as label 1.

Check out these entries, answers already filled in.
molecule	target.under.test	label.class
C=C(C)c1cnc2c(c1)cc(C(=O)N[C@H](C)c1ccc(F)cc1)c(=O)n2Cc1ccc(F)cc1 [Compound 88]	human CB2 receptor (Homo sapiens (Human), UniProt P34972)	label 0
COc1ccc(-c2cnc3c(c2)cc(C(=O)NCc2ccc(F)cc2)c(=O)n3CCN2CCOCC2)cc1 [Compound 105]	human CB2 receptor (Homo sapiens (Human), UniProt P34972)	label 0
O=C(NC1(CO)CCCCC1)c1c(O)c2cc(-c3ccc(F)cc3)cnc2n(CCN2CCOCC2)c1=O [Compound 121]	human CB2 receptor (Homo sapiens (Human), UniProt P34972)	label 0
COc1ccc(-c2cnc3c(c2)cc(C(=O)NC2CC4(CCC4)C2)c(=O)n3CCN2CCOCC2)cc1 [Compound 29]	human CB2 receptor (Homo sapiens (Human), UniProt P34972)	label 1
N#Cc1ccc(-c2cnc3c(c2)cc(C(=O)NC24CC(C2)C4)c(=O)n3CCN2CCOCC2)nc1 [Compound 59]	human CB2 receptor (Homo sapiens (Human), UniProt P34972)	label 0
O=C(NC1CC2(CCC2)C1)c1cc2cc(-c3ccc(F)cc3)cnc2n(CCN2CCOCC2)c1=O [Compound 32]	human CB2 receptor (Homo sapiens (Human), UniProt P34972)	label 1
C[C@@H](NC(=O)c1cc2cc(Br)cnc2n(Cc2ccc(F)cc2)c1=O)c1ccc(C#N)cc1 [Compound 91]	human CB2 receptor (Homo sapiens (Human), UniProt P34972)	label 0
C[C@H]1CC[C@@H](NC(=O)c2c(O)c3cccnc3n(CCN3CCOCC3)c2=O)CC1 [Compound 137]	human CB2 receptor (Homo sapiens (Human), UniProt P34972)	label 0
O=C(NC12CCC(C1)C2)c1c(O)c2cc(-c3ccc(F)cc3)cnc2n(CCN2CCOCC2)c1=O [Compound 115]	human CB2 receptor (Homo sapiens (Human), UniProt P34972)	label 0
CC(C)c1cnc2c(c1)cc(C(=O)NC13CC(C1)C3)c(=O)n2Cc1ccc(F)cc1 [Compound 84]	human CB2 receptor (Homo sapiens (Human), UniProt P34972)	label 1

Query string: Quick check: does N#Cc1ccc(-c2cnc3c(c2)cc(C(=O)NC2CC4(CCC4)C2)c(=O)n3CCN2CCOCC2)cc1 [Compound 44] have IC50 under 4 nM?
Result string: label 0

Query string: Below 4 nM on IC50? Entry COc1ccc(-c2cnc3c(c2)cc(C(=O)NC24CC(C2)C4)c(=O)n3CCN2CCOCC2)cc1 [Compound 50]
Result string: label 0

Query string: Is the reported IC50 for CC(C)(NC(=O)c1cc2cc(-c3ccc(C#N)cn3)cnc2n(CCN2CCOCC2)c1=O)c1ccc(F)cc1 [Compound 40] strictly below 4 nM?
Result string: label 0
